Below, each entry is listed alongside its reported TGI.
Test system: CAKI-1 renal
Test name: NCI tumour cell line growth inhibition, 48 h

Compound	Tgt	TGI
O=C(OC(CNc1c(C(=O)c2ccccc2)c(=O)n(Cc2ccccc2)c(=O)n1Cc1ccccc1)CN1CCOCC1)c1ccccc1 (centres undefined)	CAKI-1 renal	> 100 µM
C/C(=N\NC(=S)NCCNC(=S)N/N=C(\C)c1ccccn1)c1ccccn1	CAKI-1 renal	> 89.7 µM
O=c1c(O)c(O)c1=O.[NH2-].[NH2-].[NH2-].[NH2-].[NH2-].[Ru+5]	CAKI-1 renal	> 100 µM
CC(=O)OC1C[C@@H](C)C2(C[C@H](O)c3ccoc3)C(=O)OC[C@]13C2CCC(O)C31CO1 (some centres undefined)	CAKI-1 renal	> 100 µM
Cc1ccc(S(=O)(=O)NC(CCC(=O)NN)C(=O)NN)cc1 (centres undefined)	CAKI-1 renal	> 100 µM
Cc1ccc(C(=O)Nc2ccc(S(=O)(=O)O)c3cc(S(=O)(=O)O)cc(S(=O)(=O)O)c23)cc1NC(=O)Nc1cc(C(=O)Nc2ccc(S(=O)(=O)O)c3cc(S(=O)(=O)O)cc(S(=O)(=O)O)c23)ccc1C	CAKI-1 renal	> 87.5 µM
Cc1cccc(NC(=O)c2sc3nc4c(cc3c2N)CCCC4)c1	CAKI-1 renal	> 100 µM
O=C(O)c1ccccc1SCc1cccc2c(=O)c3ccc(Cl)cc3oc12	CAKI-1 renal	> 50 µM
CCCCC1=C(Br)C(=C(Br)Br)OC1=O	CAKI-1 renal	5.53 µM
O=C([O-])c1ccc2c(c1)-c1nc-2nc2[n-]c(nc3nc(nc4[n-]c(n1)c1ccc(C(=O)[O-])cc41)-c1ccc(C(=O)[O-])cc1-3)c1ccc(C(=O)[O-])cc21.[Gd+3].[K+]	CAKI-1 renal	> 100 µM
O=C1CCCn2c(nc3ccccc32)N1	CAKI-1 renal	> 100 µM
Cc1sccc1C(=S)Nc1ccc(Cl)c(/C=N/OC(C)(C)C)c1	CAKI-1 renal	24.4 µM
O=C1C=Cc2cscc21	CAKI-1 renal	67 µM
COc1cc(/C=C2\CC3C4CCC5=CC(=O)CC[C@]5(C)C4CC[C@]3(C)C2=O)ccc1OCCCn1ccnc1 (some centres undefined)	CAKI-1 renal	26.9 µM
CC(C)(O)c1coc(S(=O)(=O)/N=C(\O)Nc2c3c(cc4c2CCC4)CCC3)c1	CAKI-1 renal	> 100 µM
COC(=O)[C@@]12OC[C@]34[C@H]([C@@H](O)[C@@H]1O)[C@@]1(C)CC(=O)C(OC(C)=O)=C(C)[C@@H]1C[C@H]3OC(=O)[C@H](OC(=O)C=C(C)C)[C@@H]24	CAKI-1 renal	10.8 µM
CN1CC[C@]2(C)c3c(O)cccc3CC3CCCC1C32C (some centres undefined)	CAKI-1 renal	> 100 µM
CC(NC(=O)C(C)C(=O)Nc1ccc(C(F)(F)F)cc1)C(N)=O (centres undefined)	CAKI-1 renal	> 100 µM
CC(C)=CCC[C@@H](C)C1=C(O)C(c2c(I)c(=O)n(C)c(=O)n2C)=C(C)C(=O)C1=O	CAKI-1 renal	> 100 µM
CC(=O)Oc1ccc2c(c1OC(C)=O)CCC1C2=CC[C@]2(C)C(=O)CCC12 (some centres undefined)	CAKI-1 renal	19 µM
CCN1C/C(=C\c2cc(OC)c(OC)c(OC)c2)C2=NN(c3ccccc3)C(c3cc(OC)c(OC)c(OC)c3)C2C1 (centres undefined)	CAKI-1 renal	3.85 µM
CC#Cc1nc2ccccc2c(=O)[nH]1	CAKI-1 renal	28.3 µM
COc1ccc(-c2[nH]c(=O)n(C3OC(CO)C(O)C(O)C3O)c(=O)c2C#N)cc1 (centres undefined)	CAKI-1 renal	> 100 µM
COC(=O)[C@@H](Nc1ccccc1)[C@@]1(C(=O)OC)SC12c1ccccc1-c1ccccc12	CAKI-1 renal	> 100 µM
